The values you see were collected from patent US20220281976A1.

target: T1, human CD33 (human, UniProt P20138 18-364); experiment: flow cytometry, human primary T cells;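 further: binding of anti-CD33 antibodies at 10 ug/ml to human primary T cells, 1 h on ice, detected with PE-labelled secondary antibody, read as flow cytometry MFI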
T1 construct: CD33 on human primary dendritic cells, macrophages, monocytes and T cells and on CHO cells expressing recombinant human CD33; also called Siglec-3; hCD33
T1 sequence (P20138 18-364): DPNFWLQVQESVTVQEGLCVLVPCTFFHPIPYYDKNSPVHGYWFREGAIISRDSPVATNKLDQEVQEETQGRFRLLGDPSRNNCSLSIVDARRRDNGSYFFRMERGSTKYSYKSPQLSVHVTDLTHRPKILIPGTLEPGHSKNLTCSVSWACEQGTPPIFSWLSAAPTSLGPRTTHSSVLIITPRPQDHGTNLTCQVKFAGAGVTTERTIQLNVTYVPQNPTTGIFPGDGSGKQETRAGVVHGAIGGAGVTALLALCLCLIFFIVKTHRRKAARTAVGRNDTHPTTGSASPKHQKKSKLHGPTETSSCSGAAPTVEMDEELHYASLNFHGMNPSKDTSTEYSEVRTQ
ENDPOINT: T cell MFI
One number for each entry.

Consider the following illustrative entries.
1) C-23 (antibody, V domains shown, human IgG1) VH: QVQLQESGPGLVKPSETLSLTCAVSGYSISSGYYWGWIRQPPGKGLEWIGTIYHSGSTYYNPSLKSRVTISVDTSKNQFSLKLSSVTAADTAVYYCAREVGVVGALPYFDYWGQGTLVTVSS VL: DIQMTQSPSSLSASVGDRVTITCRASQSISSYLNWYQQKPGKAPKLLIYGASSLQSGVPSRFSGSGSGTDFTLTISSLQPEDFATYYCQQASSSPPTFGGGTKVEIK    242
2) C-24 (antibody, V domains shown, human IgG1) VH: QVQLVQSGAEVKKPGASVKVSCKASGYTFTSYYMHWVRQAPGQGLEWMGVINPSGGSTSYAQKFQGRVTMTRDTSTSTVYMELSSLRSEDTAVYYCARESQYYDVHGMDVWGQGTTVTVSS VL: DIQMTQSPSSLSASVGDRVTITCRASQSISSYLNWYQQKPGKAPKLLIYAASSLQSGVPSRFSGSGSGTDFTLTISSLQPEDFATYYCQQSVTPPLTFGGGTKVEIK    193
3) C-38 (antibody, V domains shown, human IgG1) VH: QLQLQESGPGLVKPSETLSLTCTVSGGSISSSSYYWGWIRQPPGKGLEWIGSIYYSGSTYYNPSLKSRVTISVDTSKNQFSLKLSSVTAADTAVYYCAREATAAADHPGMDVWGQGTTVTVSS VL: DIQMTQSPSSLSASVGDRVTITCQASQDITNYLNWYQQKPGKAPKLLIYDASNLETGVPSRFSGSRSGTDFTFTISSLQPEDIATYYCQQYHDFPTFGGGTKVEIK    267

Fill in T cell MFI for each of the 2 binders listed.
1. C-73 (antibody, V domains shown, human IgG1) VH: QVQLVESGGGVVQPGRSLRLSCAASGFTFSSYGMHWVRQAPGKGLEWVAVIWYDGSNKYYADSVKGRFTISRDNSKNTLYLQMNSLRAEDTAVYYCARGTNAYGTPRDFDLWGRGTLVTVSS VL: DIQMTQSPSSLSASVGDRVTITCRASQSISSYLNWYQQKPGKAPKLLIYAASSLQSGVPSRFSGSGSGTDFTLTISSLQPEDFATYYCQQLSDTPITFGGGTKVEIK
2. C-87 (antibody, V domains shown, human IgG1) VH: QLQLQESGPGLVKPSETLSLTCTVSGGSISSSSYAWGWIRQPPGKGLEWIGSIYYSGSTYYNPSLKSRVTISVDTSKNQFSLKLSSVTAADTAVYYCARDPLYPLTPYGMDVWGQGTTVTVSS VL: EIVMTQSPATLSLSPGERATLSCRASQSVSSYLAWYQQKPGQAPRLLIYDASNRATGIPARFSGSGSGTDFTLTISSLEPEDFAVYYCQQLSVFPPTFGGGTKVEIK

Result ::
1. 210
2. 246
